Cited source for all entries: ChEMBL document CHEMBL4152389

Test: Intrinsic clearance in human liver microsomes at 50 uM after 15 mins to 24 hrs by LC/MS/MS analysis
Format: ADME, microsome
Conditions: read-out: CLH
Recorded CLint scaled at 50 µM values for a group of molecules are listed next.
In your response, put the unit directly after the numeric value.

Use these answered entries as a reference point.
- Smiles text: "Cl.NCCNS(=O)(=O)c1ccc(NC2CCCCC2)c(NCc2ccccc2)c1"
  CLint scaled at 50 µM: "1.3 mL/min/kg"
- Smiles text: "CNCCNS(=O)(=O)c1ccc(NC2CCCCC2)c(NCc2ccccc2)c1.Cl"
  CLint scaled at 50 µM: "1.7 mL/min/kg"
- Smiles text: "Cl.O=S(=O)(NCCN1CCNCC1)c1ccc(NC2CCCCC2)c(NCc2ccccc2)c1"
  CLint scaled at 50 µM: "1.1 mL/min/kg"

Now take the following molecule into account.
Look up and report measured CLint scaled at 50 µM for this entry: O=S(=O)(NCCN1CCOCC1)c1ccc(NC2CCCCC2)c(NCc2ccccc2)c1
22.6 mL/min/kg

---

Test: Half life in human liver microsomes at 10 uM in presence of NADPH regenerating system by LC/MS/MS analysis
Format: ADME, microsome
Reported property: half-life at 10 µM

Note down half-life at 10 µM recorded for CCOC(=O)c1ccc(NC2CCCCC2)c(N)c1
6.54 min

---

Assay: Intrinsic clearance in mouse liver microsomes at 50 uM after 15 mins to 24 hrs by LC/MS/MS analysis
Type: ADME, microsome
Conditions: read-out: CLH
Item-by-item account of CLint scaled at 50 µM
Quick note: give the figure in mL/min/kg, leave out the unit.

# annotated cases, reported CLint scaled at 50 µM shown
- Smiles text: "Cl.O=S(=O)(NCCN1CCNCC1)c1ccc(NC2CCCCC2)c(NCc2ccccc2)c1"
  Scale unit: "mL/min/kg"
  CLint scaled at 50 µM: 18
- Smiles text: "O=S(=O)(NCCN1CCOCC1)c1ccc(NC2CCCCC2)c(NCc2ccccc2)c1"
  Scale unit: "mL/min/kg"
  CLint scaled at 50 µM: 1220
- Smiles text: "Cl.NCCNS(=O)(=O)c1ccc(NC2CCCCC2)c(NCc2ccccc2)c1"
  Scale unit: "mL/min/kg"
  CLint scaled at 50 µM: 4.8

// below: CLint scaled at 50 µM requested for another compound
Return the recorded CLint scaled at 50 µM value; entry: CNCCNS(=O)(=O)c1ccc(NC2CCCCC2)c(NCc2ccccc2)c1.Cl
139

---

Experiment: Intrinsic clearance in rat liver microsomes at 50 uM after 15 mins to 24 hrs by LC/MS/MS analysis
Format: ADME, microsome
Settings: read-out: CLH
Reported property: CLint scaled at 50 µM (mL/min/kg)
Lab book: enter the figure in mL/min/kg, no units written.

These solved cases illustrate the format of a correct answer.
- Smiles text: "Cl.NCCNS(=O)(=O)c1ccc(NC2CCCCC2)c(NCc2ccccc2)c1"
  CLint scaled at 50 µM [mL/min/kg]: 27.4
- Smiles text: "O=S(=O)(NCCN1CCOCC1)c1ccc(NC2CCCCC2)c(NCc2ccccc2)c1"
  CLint scaled at 50 µM [mL/min/kg]: 326
- Smiles text: "CNCCNS(=O)(=O)c1ccc(NC2CCCCC2)c(NCc2ccccc2)c1.Cl"
  CLint scaled at 50 µM [mL/min/kg]: 161

Proceed to the following item.
State its CLint scaled at 50 µM for this compound: Cl.O=S(=O)(NCCN1CCNCC1)c1ccc(NC2CCCCC2)c(NCc2ccccc2)c1
3.4

---

Experiment: Metabolic stability in rat plasma assessed as compound recovery at 50 uM after 6 hrs by LC/MS/MS analysis
Format: ADME, cell-free
Details: read-out: Drug recovery
Reported property: remaining at 6 h, 50 µM (%)
# output: bare number, implied unit %

Record excerpt, results attached:
- Smiles text: "CNCCNS(=O)(=O)c1ccc(NC2CCCCC2)c(NCc2ccccc2)c1.Cl"
  Reported property: "remaining at 6 h, 50 µM"
  Recorded result: 65.8
- Smiles text: "Cl.NCCNS(=O)(=O)c1ccc(NC2CCCCC2)c(NCc2ccccc2)c1"
  Reported property: "remaining at 6 h, 50 µM"
  Recorded result: 100
- Smiles text: "O=S(=O)(NCCN1CCOCC1)c1ccc(NC2CCCCC2)c(NCc2ccccc2)c1"
  Reported property: "remaining at 6 h, 50 µM"
  Recorded result: 100
- Smiles text: "CCOC(=O)c1ccc(NC2CCCCC2)c(N)c1"
  Reported property: "remaining at 6 h, 50 µM"
  Recorded result: 1.1

Given the compound Cl.O=S(=O)(NCCN1CCNCC1)c1ccc(NC2CCCCC2)c(NCc2ccccc2)c1 , write its reported remaining at 6 h, 50 µM.
85.8

---

Assay: Metabolic stability in human plasma assessed as compound recovery at 50 uM after 6 hrs by LC/MS/MS analysis
Type: ADME, cell-free
Settings: read-out: Drug recovery
Reported property: remaining at 6 h, 50 µM

Read the entry O=S(=O)(NCCN1CCOCC1)c1ccc(NC2CCCCC2)c(NCc2ccccc2)c1 and write its reported remaining at 6 h, 50 µM.
100%

Check the records and state remaining at 6 h, 50 µM for Cl.O=S(=O)(NCCN1CCNCC1)c1ccc(NC2CCCCC2)c(NCc2ccccc2)c1
84.2%

---

Assay: Metabolic stability in mouse plasma assessed as compound recovery at 50 uM after 6 hrs by LC/MS/MS analysis
Format: ADME, cell-free
Conditions: read-out: Drug recovery
Documented remaining at 6 h, 50 µM across a set of compounds
Enter your answer as a number in %; do not include the unit.

Record excerpt, results attached:
- Smiles text: "Cl.NCCNS(=O)(=O)c1ccc(NC2CCCCC2)c(NCc2ccccc2)c1"
  remaining at 6 h, 50 µM [%]: 100
- Smiles text: "O=S(=O)(NCCN1CCOCC1)c1ccc(NC2CCCCC2)c(NCc2ccccc2)c1"
  remaining at 6 h, 50 µM [%]: 100
- Smiles text: "Cl.O=S(=O)(NCCN1CCNCC1)c1ccc(NC2CCCCC2)c(NCc2ccccc2)c1"
  remaining at 6 h, 50 µM [%]: 100
- Smiles text: "CCOC(=O)c1ccc(NC2CCCCC2)c(N)c1"
  remaining at 6 h, 50 µM [%]: 0

Please examine the following record next.
Quick one: give measured remaining at 6 h, 50 µM for CNCCNS(=O)(=O)c1ccc(NC2CCCCC2)c(NCc2ccccc2)c1.Cl
100

---

Test: Metabolic stability in human plasma assessed as compound recovery at 50 uM after 6 hrs by LC/MS/MS analysis
Format: ADME, cell-free
Conditions: read-out: Drug recovery
Form field: remaining at 6 h, 50 µM (one value per entry).
// unit must come after the numeric part

Name the recorded remaining at 6 h, 50 µM of the molecule listed here: CNCCNS(=O)(=O)c1ccc(NC2CCCCC2)c(NCc2ccccc2)c1.Cl
90.3%

Check the records and state remaining at 6 h, 50 µM for Cl.NCCNS(=O)(=O)c1ccc(NC2CCCCC2)c(NCc2ccccc2)c1
100%

For the molecule CCOC(=O)c1ccc(NC2CCCCC2)c(N)c1 , give its reported remaining at 6 h, 50 µM.
47.3%
